- target: G12V antigen peptide presented on SW620-DPB cells (SW620 expressing HLA-DPB1*03:01) (human)
- procedure_text: cell-based or functional assay
// NB: equality with 1 µg/mL counts as 0.0; only EC50 µg/ml (Functional Avidity) strictly below is 1.0

α49K-Y (TCR) TCR alpha: AQSVAQPEDQVNVAEGNPLTVKCTYSVSGNPYLFWYVQYPNRGLQFLLYYITGDNLVKGSYGFEAEFNKSQTSFHLKKPSALVSDSALYFCAVRDGRGGGNKLTFGTGTQLKVEL TCR beta: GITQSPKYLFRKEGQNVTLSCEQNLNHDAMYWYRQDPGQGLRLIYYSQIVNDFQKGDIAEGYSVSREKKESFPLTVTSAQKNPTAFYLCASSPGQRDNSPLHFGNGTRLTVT = 1.0
α52T-I (TCR) TCR alpha: AQSVAQPEDQVNVAEGNPLTVKCTYSVSGNPYLFWYVQYPNRGLQFLLKYIIGDNLVKGSYGFEAEFNKSQTSFHLKKPSALVSDSALYFCAVRDGRGGGNKLTFGTGTQLKVEL TCR beta: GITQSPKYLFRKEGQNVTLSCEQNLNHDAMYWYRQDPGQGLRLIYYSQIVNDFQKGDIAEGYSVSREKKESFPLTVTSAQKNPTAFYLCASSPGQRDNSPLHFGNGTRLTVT = 0.0
β56Q-H (TCR) TCR alpha: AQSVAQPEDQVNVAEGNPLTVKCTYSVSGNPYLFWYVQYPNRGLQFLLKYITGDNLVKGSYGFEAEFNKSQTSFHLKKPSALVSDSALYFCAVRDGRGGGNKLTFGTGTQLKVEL TCR beta: GITQSPKYLFRKEGQNVTLSCEQNLNHDAMYWYRQDPGQGLRLIYYSQIVNDFHKGDIAEGYSVSREKKESFPLTVTSAQKNPTAFYLCASSPGQRDNSPLHFGNGTRLTVT = 0.0
β56Q-E (TCR) TCR alpha: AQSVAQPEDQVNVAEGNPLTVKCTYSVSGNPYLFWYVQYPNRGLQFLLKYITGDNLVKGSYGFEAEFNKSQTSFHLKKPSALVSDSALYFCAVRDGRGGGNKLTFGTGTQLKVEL TCR beta: GITQSPKYLFRKEGQNVTLSCEQNLNHDAMYWYRQDPGQGLRLIYYSQIVNDFEKGDIAEGYSVSREKKESFPLTVTSAQKNPTAFYLCASSPGQRDNSPLHFGNGTRLTVT = 0.0

Continue with the binder presented below.
Q) For α51I-E (TCR) TCR alpha: AQSVAQPEDQVNVAEGNPLTVKCTYSVSGNPYLFWYVQYPNRGLQFLLKYETGDNLVKGSYGFEAEFNKSQTSFHLKKPSALVSDSALYFCAVRDGRGGGNKLTFGTGTQLKVEL TCR beta: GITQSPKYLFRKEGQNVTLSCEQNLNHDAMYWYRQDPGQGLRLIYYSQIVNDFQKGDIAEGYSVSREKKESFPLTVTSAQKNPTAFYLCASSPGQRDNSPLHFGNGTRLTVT , is the recorded EC50 µg/ml (Functional Avidity) below the cut-off of 1 µg/mL?
A) 1.0
